Target sequence: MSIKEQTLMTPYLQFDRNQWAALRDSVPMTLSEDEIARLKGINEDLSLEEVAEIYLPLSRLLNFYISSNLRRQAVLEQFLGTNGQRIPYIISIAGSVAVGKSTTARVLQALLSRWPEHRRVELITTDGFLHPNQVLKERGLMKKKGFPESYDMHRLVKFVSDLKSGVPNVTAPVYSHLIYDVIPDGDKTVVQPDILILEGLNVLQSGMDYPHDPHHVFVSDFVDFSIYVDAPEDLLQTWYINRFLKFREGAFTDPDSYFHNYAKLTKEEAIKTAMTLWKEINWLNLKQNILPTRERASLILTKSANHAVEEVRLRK

| smiles_representation | IC50 / µM |
| --- | --- |
| CC(C)(COP(=O)(O)OP(=O)(O)OC[C@H]1O[C@@H](n2cnc3c(N)ncnc32)[C@H](O)[C@@H]1OP(=O)(O)O)[C@@H](O)C(=O)NCCC(=O)NCCS | 214 |
